# MEASURED ON: Cytochrome P450 3A5 (Homo sapiens)
# Sequence (P20815 whole entry): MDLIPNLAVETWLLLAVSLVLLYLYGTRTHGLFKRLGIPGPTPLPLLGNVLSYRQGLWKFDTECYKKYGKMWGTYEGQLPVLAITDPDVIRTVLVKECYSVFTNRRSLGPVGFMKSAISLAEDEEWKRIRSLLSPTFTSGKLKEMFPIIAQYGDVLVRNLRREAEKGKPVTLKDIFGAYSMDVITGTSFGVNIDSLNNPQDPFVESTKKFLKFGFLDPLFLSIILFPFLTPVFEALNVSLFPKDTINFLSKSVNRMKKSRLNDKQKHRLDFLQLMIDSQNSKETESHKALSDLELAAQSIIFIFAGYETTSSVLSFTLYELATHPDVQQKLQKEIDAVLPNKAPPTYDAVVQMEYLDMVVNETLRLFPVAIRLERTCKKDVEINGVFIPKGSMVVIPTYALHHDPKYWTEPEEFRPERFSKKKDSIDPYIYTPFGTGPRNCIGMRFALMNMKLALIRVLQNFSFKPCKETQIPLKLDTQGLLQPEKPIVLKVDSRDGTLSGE
MEASURED PARAMETER: pIC50
Please keep in mind that pIC50 is minus log10 of the molar concentration; only the number is needed.

Observed pIC50 on Cytochrome P450 3A5 (Homo sapiens) for Cn1cc(S(=O)(=O)N2CCC3=Cc4c(cnn4-c4ccc(F)cc4)C[C@]3(C(=O)c3cc(C(F)(F)F)ccn3)C2)cn1 [RELACORILANT] , please.
5.31

----------
# EXPERIMENTAL DETAILS: AUC in monkey plasma at 20 mg/kg, po measured up to 24 hrs by LC/MS analysis
# Format: ADME, organism-based, Macaca mulatta
# Design: dose 20 mg/kg, time < 24 hr, route oral
# RUN PARAMETERS: rhesus monkey
MEASURED PARAMETER: AUC at 24 h (ng·h/mL)
Numbers only; they are read as ng·h/mL.

Examples with answers:
| SMILES INPUT | MEASURED PARAMETER | OBSERVED VALUE |
| --- | --- | --- |
| CCn1nccc1S(=O)(=O)N1CCC2=Cc3c(cnn3-c3ccc(F)cc3)C[C@]2(C(=O)c2cc(C(F)(F)F)ccn2)C1 | AUC at 24 h | 193 |
| Cn1nccc1S(=O)(=O)N1CCC2=Cc3c(cnn3-c3ccc(F)cc3)C[C@]2(C(=O)c2cc(C(F)(F)F)ccn2)C1 | AUC at 24 h | 217 |

Shift focus to the following entry.
I have this compound here, Cn1cc(S(=O)(=O)N2CCC3=Cc4c(cnn4-c4ccc(F)cc4)C[C@]3(C(=O)c3cc(C(F)(F)F)ccn3)C2)cn1 , and I need its recorded AUC at 24 h.
11700

These measurements were taken from ChEMBL document CHEMBL4049426.
